Tested on: ornithine decarboxylase (ODC)
Experiment: ODC assay: inhibition of TPA induction of ornithine decarboxylase
Format: biochemical
Conditions: concentration of the test compound which causes 80% inhibition in the ODC assay; TPA-induced ODC
RECORDED METRIC: IC80 conc (nmols)

MOLECULE: CCOC(=O)c1ccc(C(C)=Nc2ccc3c(c2)C(C)(C)CCC3(C)C)cc1 [Compound 5]
READOUT QUALIFIER: =
REPORTED MEASUREMENT: 5.5
//
MOLECULE: CCOC(=O)c1ccc(C=Nc2cc3c(cc2C)C(C)(C)CCC3(C)C)cc1 [Compound 6]
READOUT QUALIFIER: =
REPORTED MEASUREMENT: 293
//
MOLECULE: COC(=O)c1ccc(C=Nc2ccc3c(c2)C(C)(C)CCC3(C)C)cc1 [Compound 1]
READOUT QUALIFIER: =
REPORTED MEASUREMENT: 14.5
//
MOLECULE: CCOC(=O)c1ccc(N=Cc2ccc3c(c2)C(C)(C)CCC3(C)C)cc1 [Compound 9]
READOUT QUALIFIER: =
REPORTED MEASUREMENT: 9.6
//
MOLECULE: CCOC(=O)c1ccc(C=Nc2ccc3c(c2)C(C)(C)CCC3(C)C)cc1 [Compound 4]
READOUT QUALIFIER: =
REPORTED MEASUREMENT: 2.5
//
MOLECULE: CCOC(=O)c1ccc(N=Cc2ccc3c(c2)C(C)(C)CC(C)(C)O3)cc1 [Compound 10]
READOUT QUALIFIER: =
REPORTED MEASUREMENT: 44.0
//
MOLECULE: CCOC(=O)c1ccc(C=Nc2ccc3c(c2)C(C)(C)CCC3(C)C)nc1 [Compound 7]
READOUT QUALIFIER: >
REPORTED MEASUREMENT: 30
//
MOLECULE: CCOC(=O)c1ccc(N=Cc2cc3c(cc2C)C(C)(C)CCC3(C)C)cc1 [Compound 11]
READOUT QUALIFIER: =
REPORTED MEASUREMENT: 3.5
